tgt: Jupiter microtubule-associated homolog 2 (JPT2) (Homo sapiens)
experiment-description: […]-NAADP radioligand filtration binding, displacement by HPLC-purified NADP
result-type: IC50 (nM)
# unit: nM | format: bare number

Recall the recorded IC50 for NC(=O)c1ccc[n+]([C@@H]2O[C@H](COP(=O)(O)OP(=O)(O)OC[C@H]3O[C@@H](n4cnc5c(N)ncnc54)[C@H](OP(=O)(O)O)[C@@H]3O)[C@@H](O)[C@H]2O)c1 with Jupiter microtubule-associated homolog 2 (JPT2) (Homo sapiens) and state it.
334

###

tgt: Jupiter microtubule-associated homolog 2 (JPT2) (Homo sapiens, UniProt Q9H910)
Sequence (Q9H910 1-218 isoform Q9H910-3): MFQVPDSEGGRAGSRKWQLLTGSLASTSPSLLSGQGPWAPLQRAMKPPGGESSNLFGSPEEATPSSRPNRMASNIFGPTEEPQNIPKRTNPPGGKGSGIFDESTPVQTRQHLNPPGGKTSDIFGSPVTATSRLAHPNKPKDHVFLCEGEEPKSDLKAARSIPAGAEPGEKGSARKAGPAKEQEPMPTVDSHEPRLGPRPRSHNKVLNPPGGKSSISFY
experiment-description: […]-NAADP radioligand filtration binding, displacement by unlabeled NAADP
result-type: pIC50
Keep in mind that pIC50 stands for -log10 of concentration in molar terms.

Form field - read-out: pIC50; system: Jupiter microtubule-associated homolog 2 (JPT2) (Homo sapiens, UniProt Q9H910); submitted item: Nc1ncnc2c1ncn2[C@@H]1O[C@H](COP(=O)(O)OP(=O)(O)OC[C@H]2O[C@@H]([n+]3cccc(C(=O)O)c3)[C@H](O)[C@@H]2O)[C@@H](O)[C@H]1OP(=O)(O)O [NAADP]
7.70
